Details: in 1,2-dichloroethane, 303.15 K
TEST_READOUT: solubility (mole fraction)

1) CC1(C)COP(=O)(C(C)(O)c2ccccc2)OC1 (stereo unspecified) | 0.00258

###

Details: in methanol, 298.31 K
TEST_READOUT: solubility (mole fraction)

1. CC1(C)COP(=O)(C(C)(O)c2ccccc2)OC1 (stereo unspecified) | 0.0168

###

Details: in acetone, 278.15 K
TEST_READOUT: solubility (mole fraction)

1) CC1(C)COP(=O)(C(C)(O)c2ccccc2)OC1 (stereo unspecified) | 0.00106

###

Settings: in acetonitrile, 308.15 K
TEST_READOUT: solubility (mole fraction)

1. CC1(C)COP(=O)(C(C)(O)c2ccccc2)OC1 (stereo unspecified) | 0.00342

###

Conditions: in acetonitrile, 318.15 K
TEST_READOUT: solubility (mole fraction)

1. CC1(C)COP(=O)(C(C)(O)c2ccccc2)OC1 (stereo unspecified) | 0.0046

###

Conditions: in acetone, 318.05 K
TEST_READOUT: solubility (mole fraction)

1) CC1(C)COP(=O)(C(C)(O)c2ccccc2)OC1 (stereo unspecified) | 0.00593

###

Conditions: in 1,2-dichloroethane, 318.05 K
TEST_READOUT: solubility (mole fraction)

1. CC1(C)COP(=O)(C(C)(O)c2ccccc2)OC1 (stereo unspecified) | 0.00454

###

Conditions: in ethanol, 323.05 K
TEST_READOUT: solubility (mole fraction)

1) CC1(C)COP(=O)(C(C)(O)c2ccccc2)OC1 (stereo unspecified) | 0.0195

###

Details: in ethanol, 343.15 K
TEST_READOUT: solubility (mole fraction)

1. CC1(C)COP(=O)(C(C)(O)c2ccccc2)OC1 (stereo unspecified) | 0.0374

###

Settings: in acetone, 308.15 K
TEST_READOUT: solubility (mole fraction)

1) CC1(C)COP(=O)(C(C)(O)c2ccccc2)OC1 (stereo unspecified) | 0.00469

###

Details: in ethanol, 313.05 K
TEST_READOUT: solubility (mole fraction)

1) CC1(C)COP(=O)(C(C)(O)c2ccccc2)OC1 (stereo unspecified) | 0.014

###

Conditions: in ethyl acetate, 303.35 K
TEST_READOUT: solubility (mole fraction)

1. CC1(C)COP(=O)(C(C)(O)c2ccccc2)OC1 (stereo unspecified) | 0.00092

###

Conditions: in ethyl acetate, 342.95 K
TEST_READOUT: solubility (mole fraction)

1) CC1(C)COP(=O)(C(C)(O)c2ccccc2)OC1 (stereo unspecified) | 0.0036

###

Settings: in chloroform, 303.35 K
TEST_READOUT: solubility (mole fraction)

1) CC1(C)COP(=O)(C(C)(O)c2ccccc2)OC1 (stereo unspecified) | 0.00944

###

Conditions: in ethyl acetate, 313.15 K
TEST_READOUT: solubility (mole fraction)

1. CC1(C)COP(=O)(C(C)(O)c2ccccc2)OC1 (stereo unspecified) | 0.00166

###

Settings: in ethyl acetate, 338.15 K
TEST_READOUT: solubility (mole fraction)

1. CC1(C)COP(=O)(C(C)(O)c2ccccc2)OC1 (stereo unspecified) | 0.00336

###

Conditions: in ethanol, 327.95 K
TEST_READOUT: solubility (mole fraction)

1. CC1(C)COP(=O)(C(C)(O)c2ccccc2)OC1 (stereo unspecified) | 0.0239

###

Conditions: in acetonitrile, 303.25 K
TEST_READOUT: solubility (mole fraction)

1. CC1(C)COP(=O)(C(C)(O)c2ccccc2)OC1 (stereo unspecified) | 0.00268

###

Settings: in chloroform, 283.35 K
TEST_READOUT: solubility (mole fraction)

1) CC1(C)COP(=O)(C(C)(O)c2ccccc2)OC1 (stereo unspecified) | 0.00547

###

Details: in methanol, 293.25 K
TEST_READOUT: solubility (mole fraction)

1. CC1(C)COP(=O)(C(C)(O)c2ccccc2)OC1 (stereo unspecified) | 0.0146

###

Conditions: in chloroform, 298.45 K
TEST_READOUT: solubility (mole fraction)

1. CC1(C)COP(=O)(C(C)(O)c2ccccc2)OC1 (stereo unspecified) | 0.00866

###

Conditions: in acetonitrile, 293.35 K
TEST_READOUT: solubility (mole fraction)

1) CC1(C)COP(=O)(C(C)(O)c2ccccc2)OC1 (stereo unspecified) | 0.00198

###

Conditions: in ethyl acetate, 328.35 K
TEST_READOUT: solubility (mole fraction)

1. CC1(C)COP(=O)(C(C)(O)c2ccccc2)OC1 (stereo unspecified) | 0.00283

###

Conditions: in methanol, 313.05 K
TEST_READOUT: solubility (mole fraction)

1. CC1(C)COP(=O)(C(C)(O)c2ccccc2)OC1 (stereo unspecified) | 0.0259

###

Conditions: in ethyl acetate, 333.25 K
TEST_READOUT: solubility (mole fraction)

1) CC1(C)COP(=O)(C(C)(O)c2ccccc2)OC1 (stereo unspecified) | 0.00307

###

Settings: in ethanol, 338.05 K
TEST_READOUT: solubility (mole fraction)

1) CC1(C)COP(=O)(C(C)(O)c2ccccc2)OC1 (stereo unspecified) | 0.0327

###

Settings: in chloroform, 288.15 K
TEST_READOUT: solubility (mole fraction)

1. CC1(C)COP(=O)(C(C)(O)c2ccccc2)OC1 (stereo unspecified) | 0.00651

###

Details: in ethanol, 293.25 K
TEST_READOUT: solubility (mole fraction)

1) CC1(C)COP(=O)(C(C)(O)c2ccccc2)OC1 (stereo unspecified) | 0.00786

###

Conditions: in acetonitrile, 288.45 K
TEST_READOUT: solubility (mole fraction)

1. CC1(C)COP(=O)(C(C)(O)c2ccccc2)OC1 (stereo unspecified) | 0.00169

###

Conditions: in methanol, 323.15 K
TEST_READOUT: solubility (mole fraction)

1. CC1(C)COP(=O)(C(C)(O)c2ccccc2)OC1 (stereo unspecified) | 0.0321

###

Details: in 1,2-dichloroethane, 308.25 K
TEST_READOUT: solubility (mole fraction)

1) CC1(C)COP(=O)(C(C)(O)c2ccccc2)OC1 (stereo unspecified) | 0.00291

###

Conditions: in acetonitrile, 327.95 K
TEST_READOUT: solubility (mole fraction)

1. CC1(C)COP(=O)(C(C)(O)c2ccccc2)OC1 (stereo unspecified) | 0.00654

###

Conditions: in acetonitrile, 283.25 K
TEST_READOUT: solubility (mole fraction)

1. CC1(C)COP(=O)(C(C)(O)c2ccccc2)OC1 (stereo unspecified) | 0.00144

###

Conditions: in methanol, 283.35 K
TEST_READOUT: solubility (mole fraction)

1) CC1(C)COP(=O)(C(C)(O)c2ccccc2)OC1 (stereo unspecified) | 0.0112

###

Settings: in acetone, 298.35 K
TEST_READOUT: solubility (mole fraction)

1) CC1(C)COP(=O)(C(C)(O)c2ccccc2)OC1 (stereo unspecified) | 0.0031

###

Settings: in chloroform, 293.05 K
TEST_READOUT: solubility (mole fraction)

1) CC1(C)COP(=O)(C(C)(O)c2ccccc2)OC1 (stereo unspecified) | 0.00768

###

Conditions: in ethanol, 283.25 K
TEST_READOUT: solubility (mole fraction)

1) CC1(C)COP(=O)(C(C)(O)c2ccccc2)OC1 (stereo unspecified) | 0.00618

###

Conditions: in ethanol, 318.15 K
TEST_READOUT: solubility (mole fraction)

1) CC1(C)COP(=O)(C(C)(O)c2ccccc2)OC1 (stereo unspecified) | 0.0169

###

Settings: in ethanol, 278.45 K
TEST_READOUT: solubility (mole fraction)

1) CC1(C)COP(=O)(C(C)(O)c2ccccc2)OC1 (stereo unspecified) | 0.00558

###

Conditions: in chloroform, 313.05 K
TEST_READOUT: solubility (mole fraction)

1) CC1(C)COP(=O)(C(C)(O)c2ccccc2)OC1 (stereo unspecified) | 0.0128

###

Conditions: in 1,2-dichloroethane, 322.95 K
TEST_READOUT: solubility (mole fraction)

1) CC1(C)COP(=O)(C(C)(O)c2ccccc2)OC1 (stereo unspecified) | 0.00542

###

Conditions: in acetonitrile, 298.25 K
TEST_READOUT: solubility (mole fraction)

1) CC1(C)COP(=O)(C(C)(O)c2ccccc2)OC1 (stereo unspecified) | 0.00221

###

Details: in ethyl acetate, 297.95 K
TEST_READOUT: solubility (mole fraction)

1) CC1(C)COP(=O)(C(C)(O)c2ccccc2)OC1 (stereo unspecified) | 0.00054

###

Conditions: in chloroform, 317.95 K
TEST_READOUT: solubility (mole fraction)

1. CC1(C)COP(=O)(C(C)(O)c2ccccc2)OC1 (stereo unspecified) | 0.0154

###

Conditions: in methanol, 288.15 K
TEST_READOUT: solubility (mole fraction)

1. CC1(C)COP(=O)(C(C)(O)c2ccccc2)OC1 (stereo unspecified) | 0.0132

###

Conditions: in methanol, 303.15 K
TEST_READOUT: solubility (mole fraction)

1. CC1(C)COP(=O)(C(C)(O)c2ccccc2)OC1 (stereo unspecified) | 0.0196
